All figures here come from patent US20260374880.

Target: T1, human TGFbR1 ECD-133-huFc (human)
T1 chain: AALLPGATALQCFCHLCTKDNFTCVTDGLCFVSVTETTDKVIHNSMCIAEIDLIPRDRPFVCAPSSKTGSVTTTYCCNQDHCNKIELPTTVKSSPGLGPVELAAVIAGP
Experiment: ELISA
Reported metric: EC50 (µg/mL)
Answers are plain numbers, in µg/mL.

Below: 3 binders and their reported EC50.
[
  {
    "Binder": "YU772-H05 (antibody, V domains shown) VH: EVQLLESGGGLVQPGGSLRLSCAASGFTFSSYAMSWVRQAPGKGLEWVSAISGSGGTTYYADSVKGRFTISRDNSKNTLYLQMNSLRAEDTAVYYCARVVGYVFGGYYGGGMDYWGQGTLVTVSS VL: DIQMTQSPSSLSASVGDRVTITCRASQSISSYLNWYQQKPGKAPKLLIYAASSLQSGVPSRFSGSGSGTDFTLTISSLQPEDFATYYCQQGYGPLTFGQGTKLEIK",
    "Unit symbol": "µg/mL",
    "Val": 0.03
  },
  {
    "Binder": "YU771-B12 (antibody, V domains shown) VH: EVQLLESGGGLVQPGGSLRLSCAASGFTFSSYPMSWVRQAPGKGLEWVSAISGYGGSTYYADSVKGRFTISRDNSKNTLYLQMNSLRAEDTAVYYCARVVGYVYGGSYGGGMDYWGQGTLVTVSS VL: DIQMTQSPSSLSASVGDRVTITCRASQSISSYLNWYQQKPGKAPKLLIYAASSLQSGVPSRFSGSGSGTDFTLTISSLQPEDFATYYCQQGYGPLTFGQGTKLEIK",
    "Unit symbol": "µg/mL",
    "Val": 0.0244
  },
  {
    "Binder": "YU772-D10_VH-YU772-C01_VL (antibody, V domains shown) VH: EVQLLESGGGLVQPGGSLRLSCAASGFTFSSYPMSWVRQAPGKGLEWVSAISGYGGSTYYADSVKGRFTISRDNSKNTLYLQMNSLRAEDTAVYYCARVVGYVYDGSYGGGMDYWGQGTLVTVSS VL: DIQMTQSPSSLSASVGDRVTITCRASQSIWSYLNWYQQKPGKAPKLLIYAASSLQSGVPSRFSGSGSGTDFTLTISSLQPEDFATYYCQQGYGPLTFGQGTKLEIK",
    "Unit symbol": "µg/mL",
    "Val": 0.0303
  }
]

# context switch: different binder, same EC50
Tell me EC50 reported for YU772-F11 (antibody, V domains shown) VH: EVQLLESGGGLVQPGGSLRLSCAASGFTFSTYPMSWVRQAPGKGLEWVSAISGSGGSTYYADSVKGRFTISRDNSKNTLYLQMNSLRAEDTAVYYCARVVGYVYRGSYGGGMDYWGQGTLVTVSS VL: DIQMTQSPSSLSASVGDRVTITCRASQSISSYLNWYQQKPGKAPKLLIYAASSLQSGVPSRFSGSGSGTDFTLTISSLQPEDFATYYCQQGYGPLTFGQGTKLEIK
0.0249
